target.of.assay: T1, Cynomolgus monkey CD8a (cynomolgus monkey)
T1 construct: whole, on cells; On transfected HEK293F cells (full length) or natively on cynomolgus PBMC T cells; also called cynomolgus CD8a-FL; cynomolgus monkey CD8α
assay.overview: flow cytometry, cynomolgus PBMC, PI-CD3+CD4- gate
Would you kindly list Kd for each of these binders?

What value of Kd has been recorded for this entry: hzB7v35-xELL-Fc (Fc fusion, Homodimeric VHH-human IgG1 Fc xELL fusion) QVQLVQSGGGEVKPGGSLRLSCAASGFTFDDYAMSWVRQAPGKGLEWVSTITWDAEGTYYAAPVKGRFTISRDNAKNTVYLQMSSLRAEDTAVYYCAKGSPELQYDTWGQGTLVTVKPDKTHTCPPCPAPGGPSVFLFPPKPKDTLMISRTPEVTCVVVDVSHEDPEVKFNWYVDGVEVHNAKTKPREEQYNSTYRVVSVLTVLHQDWLNGKEYKCKVSNKALPAPIEKTISKAKGQPREPQVYTLPPSRDELTKNQVSLTCLVKGFYPSDIAVEWESNGQPENNYKTTPPVLDSDGSFFLYSKLTVDKSRWQQGNVFSCSVMHEALHNHYTQKSLSLSPGK
0.0236 nM

So what does the record say about Kd for hzB7v31-xELL-Fc (Fc fusion, Homodimeric VHH-human IgG1 Fc xELL fusion; also called CD8a-hzB7v31-Fc-xELL) QVQLVQSGGGEVQPGGSLRLSCAASGFTFDDYAMSWVRQAPGKGLEWVSTITWDAGGTYYAAPVKGRFTISRDNAKNTVYLQMSSLRAEDTAVYYCAKGSPELQYDTWGQGTLVTVKPDKTHTCPPCPAPGGPSVFLFPPKPKDTLMISRTPEVTCVVVDVSHEDPEVKFNWYVDGVEVHNAKTKPREEQYNSTYRVVSVLTVLHQDWLNGKEYKCKVSNKALPAPIEKTISKAKGQPREPQVYTLPPSRDELTKNQVSLTCLVKGFYPSDIAVEWESNGQPENNYKTTPPVLDSDGSFFLYSKLTVDKSRWQQGNVFSCSVMHEALHNHYTQKSLSLSPGK ?
0.0389 nM

Kd for hzB7v29-xELL-Fc (Fc fusion, Homodimeric VHH-human IgG1 Fc xELL fusion) QVQLVQSGGGEVQPGGSLRLSCAASGFTFDDYAMSWVRQAPGKGLEWVSTITWDAEGTYYAAPVKGRFTISRDNAKNTVYLQMSSLRAEDTAVYYCAKGSPELQYDTWGQGTLVTVKPDKTHTCPPCPAPGGPSVFLFPPKPKDTLMISRTPEVTCVVVDVSHEDPEVKFNWYVDGVEVHNAKTKPREEQYNSTYRVVSVLTVLHQDWLNGKEYKCKVSNKALPAPIEKTISKAKGQPREPQVYTLPPSRDELTKNQVSLTCLVKGFYPSDIAVEWESNGQPENNYKTTPPVLDSDGSFFLYSKLTVDKSRWQQGNVFSCSVMHEALHNHYTQKSLSLSPGK ?
0.0317 nM
